tested on: TTR; assay: TTR editing in HEK293_Cas9 cells transfected with dgRNAs (Table 4); format: cell-based, human; details: HEK293_Cas9 cells (constitutively express Spy Cas9) transfected with dgRNAs

SEQUENCE_RECORD	Avg % Insert, %
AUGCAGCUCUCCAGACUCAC (tested as dual guide RNA, chemistry not given here) [CR003358]	1.29
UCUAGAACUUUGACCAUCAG (tested as dual guide RNA, chemistry not given here) [CR003345]	19.00
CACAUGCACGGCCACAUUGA (tested as dual guide RNA, chemistry not given here) [CR003350]	5.54
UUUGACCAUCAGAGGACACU (tested as dual guide RNA, chemistry not given here) [CR003344]	4.32
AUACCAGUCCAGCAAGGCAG (tested as dual guide RNA, chemistry not given here) [CR003338]	4.76
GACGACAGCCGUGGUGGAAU (tested as dual guide RNA, chemistry not given here) [CR003388]	1.41
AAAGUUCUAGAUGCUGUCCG (tested as dual guide RNA, chemistry not given here) [CR003346]	33.03

###

system: TTR; assay: TTR editing in primary human hepatocytes transfected with Spy Cas9 mRNA and dgRNAs (Table 9); format: cell-based; conditions: dgRNA co-transfected with Spy Cas9 mRNA (SEQ ID NO:2)
We begin with a simple list: items and their reported Avg % Insert.

SEQUENCE_RECORD	Avg % Insert, %
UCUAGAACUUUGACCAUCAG (tested as dual guide RNA, chemistry not given here) [CR003345]	32.30
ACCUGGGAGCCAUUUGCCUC (tested as dual guide RNA, chemistry not given here) [CR003354]	2.87
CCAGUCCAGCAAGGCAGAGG (tested as dual guide RNA, chemistry not given here) [CR003337]	18.10
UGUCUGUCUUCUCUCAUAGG (tested as dual guide RNA, chemistry not given here) [CR005307]	3.67
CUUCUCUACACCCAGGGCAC (tested as dual guide RNA, chemistry not given here) [CR003342]	20.60
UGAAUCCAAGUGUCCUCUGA (tested as dual guide RNA, chemistry not given here) [CR005303]	35.00
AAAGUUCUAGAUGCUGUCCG (tested as dual guide RNA, chemistry not given here) [CR003346]	5.63
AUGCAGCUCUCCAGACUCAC (tested as dual guide RNA, chemistry not given here) [CR003358]	2.73
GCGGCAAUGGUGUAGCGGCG (tested as dual guide RNA, chemistry not given here) [CR003377]	16.97
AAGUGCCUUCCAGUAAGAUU (tested as dual guide RNA, chemistry not given here) [CR003368]	10.53
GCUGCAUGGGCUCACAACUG (tested as dual guide RNA, chemistry not given here) [CR003361]	2.73
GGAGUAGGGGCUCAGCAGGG (tested as dual guide RNA, chemistry not given here) [CR003382]	0.97
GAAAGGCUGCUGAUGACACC (tested as dual guide RNA, chemistry not given here) [CR003352]	11.73
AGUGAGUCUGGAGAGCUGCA (tested as dual guide RNA, chemistry not given here) [CR003359]	25.67
